Origin of values: ChEMBL document CHEMBL3352570

# system_tested: Protein deacetylase HDAC6 (Homo sapiens)
# Sequence (Q9UBN7 whole entry): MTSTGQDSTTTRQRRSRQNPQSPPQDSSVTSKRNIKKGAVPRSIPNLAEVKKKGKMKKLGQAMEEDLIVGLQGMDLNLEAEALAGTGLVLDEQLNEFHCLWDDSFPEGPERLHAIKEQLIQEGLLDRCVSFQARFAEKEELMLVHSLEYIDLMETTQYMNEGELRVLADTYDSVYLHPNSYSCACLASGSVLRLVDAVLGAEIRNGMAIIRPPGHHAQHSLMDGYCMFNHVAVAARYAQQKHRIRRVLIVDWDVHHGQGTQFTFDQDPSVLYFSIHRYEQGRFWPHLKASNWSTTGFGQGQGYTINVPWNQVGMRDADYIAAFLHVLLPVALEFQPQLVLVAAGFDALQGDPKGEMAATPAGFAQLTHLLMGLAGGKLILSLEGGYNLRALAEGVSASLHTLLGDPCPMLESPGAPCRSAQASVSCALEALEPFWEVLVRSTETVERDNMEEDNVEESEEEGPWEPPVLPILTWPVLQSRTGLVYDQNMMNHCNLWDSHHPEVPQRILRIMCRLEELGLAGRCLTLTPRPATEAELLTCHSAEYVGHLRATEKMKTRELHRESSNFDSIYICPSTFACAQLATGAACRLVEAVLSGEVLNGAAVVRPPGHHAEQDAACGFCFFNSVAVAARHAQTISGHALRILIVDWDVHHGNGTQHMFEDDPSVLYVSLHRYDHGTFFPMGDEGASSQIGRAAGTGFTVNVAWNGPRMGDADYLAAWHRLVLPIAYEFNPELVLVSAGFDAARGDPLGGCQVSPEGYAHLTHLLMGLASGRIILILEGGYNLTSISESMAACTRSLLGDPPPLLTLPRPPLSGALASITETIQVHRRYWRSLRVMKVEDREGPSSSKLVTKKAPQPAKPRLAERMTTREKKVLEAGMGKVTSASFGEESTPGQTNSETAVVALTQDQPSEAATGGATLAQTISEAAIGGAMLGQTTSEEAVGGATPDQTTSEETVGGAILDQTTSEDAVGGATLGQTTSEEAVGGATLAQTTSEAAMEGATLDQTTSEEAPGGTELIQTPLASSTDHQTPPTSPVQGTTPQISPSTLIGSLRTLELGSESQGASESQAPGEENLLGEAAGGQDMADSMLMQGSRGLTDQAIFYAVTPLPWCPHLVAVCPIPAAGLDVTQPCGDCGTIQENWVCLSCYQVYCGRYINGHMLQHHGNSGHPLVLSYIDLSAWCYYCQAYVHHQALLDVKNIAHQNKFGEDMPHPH
pIC50: −log10 of the molar value.
Entries are sorted into classes by pIC50 as follows: low end: < 6; middle: ≥ 6 and < 8; high end: ≥ 8

Previously resolved entries follow.
sample_smiles | assigned_category
Cc1cccc(NC(=O)[C@H](CCCCCS)NC(=O)[C@@H]2CCCC(=O)N2)c1 | high end
O=C1CCC[C@@H](C(=O)N[C@@H](CCCCCS)C(=O)NCc2ccc(C(F)(F)F)cc2)N1 | middle
O=C(CCCCCCS)NCc1ccc(C(F)(F)F)cc1 | low end
O=C1CCC[C@H](C(=O)N[C@@H](CCCCCS)C(=O)Nc2ccccc2)N1 | high end
O=C1CCC[C@@H](C(=O)N[C@@H](CCCCCS)C(=O)NCc2cccc(OCc3ccccc3)c2)N1 | middle
Cc1cccc(CCNC(=O)CCCCCCS)c1 | low end

Q: Which of the defined bands does the recorded pIC50 of O=C1C[C@@H](C(=O)N[C@@H](CCCCCS)C(=O)Nc2ccccc2)N1 sit within?
Result: high end

Q: Which of the defined bands does the recorded pIC50 of O=C1CCC[C@@H](C(=O)N[C@H](CCCCCS)C(=O)Nc2ccccc2)N1 sit within?
Result: low end
